Target: Muscarine M4 (GPCR-A-MA-ACH M4) (Homo sapiens, UniProt P08173)
Construct: expressed in transfected cells; host or cells: CHO cells
Test: Muscarine M4 receptor binding, 3H-Oxotremorine
Give measured Ki for each item. Keep answers brief.
Answers are plain numbers, in nM.

Here is how some compounds turned out for Ki.
CCCCSc1c[nH]nc1C1CN2CCC1CC2 (stereo not drawn) [Compound 49A] ... 25.1
CSc1c[nH]nc1C1CN2CCC1CC2 (stereo not drawn) [Compound 49C] ... 126

Query: Return Ki (reported value) for this compound: CCCSc1c[nH]nc1C1CN2CCC1CC2 (stereo not drawn) [Compound 49E]
Reply: 79.4

----------
Target: Muscarine M4 (GPCR-A-MA-ACH M4) (Homo sapiens, UniProt P08173)
Construct: expressed in transfected cells; host or cells: CHO cells
Sequence (P08173 1-479): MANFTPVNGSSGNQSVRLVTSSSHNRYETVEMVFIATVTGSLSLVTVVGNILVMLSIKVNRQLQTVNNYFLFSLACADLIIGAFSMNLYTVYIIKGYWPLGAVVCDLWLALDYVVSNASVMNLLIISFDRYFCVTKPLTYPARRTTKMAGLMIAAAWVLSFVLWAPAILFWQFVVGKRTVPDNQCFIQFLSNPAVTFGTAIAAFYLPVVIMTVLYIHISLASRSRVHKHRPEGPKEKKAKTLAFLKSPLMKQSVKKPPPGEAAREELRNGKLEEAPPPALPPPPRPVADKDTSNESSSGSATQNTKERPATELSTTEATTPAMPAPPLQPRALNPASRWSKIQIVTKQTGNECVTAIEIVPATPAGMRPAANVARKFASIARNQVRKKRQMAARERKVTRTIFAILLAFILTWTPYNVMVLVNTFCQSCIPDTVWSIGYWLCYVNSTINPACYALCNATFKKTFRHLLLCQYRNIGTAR
Experiment: Muscarine M4 receptor binding, 3H-Oxotremorine
Conditions: human M4, CHO cells; receptor binding, ligand 6 nM, 30 min/25° C.; read-out: RB Musc. M4 3H-Oxotremorine pKi (converted)
reported.metric: Ki (nM)
Numbers only, in nM.

Dear reader, for each entry below, please note its Ki.
1. CCCCCCC=Cc1conc1C1=CCCN(C)C1 [Compound 68B]
2. CCCCC#Cc1c[nH]nc1C1=CCCN(C)C1 [Compound 45A]
3. CCCCCCC=Cc1c[nH]nc1C1=CCCN(C)C1 [Compound 47C]
4. CN1CCC=C(c2n[nH]cc2SCCC#N)C1 [Compound 22R]
5. CN1CCC=C(c2n[nH]cc2SCCCC(F)(F)F)C1 [Compound 22B]

Reply:
1. 794
2. 398
3. 251
4. 2000
5. 398

----------
For each of the compounds below, state its Ki.
Biological target: Muscarine M3 (GPCR-A-MA-ACH M3) (Homo sapiens, UniProt P20309)
Construct: expressed in transfected cells; host or cells: CHO cells
Sequence (P20309 whole entry): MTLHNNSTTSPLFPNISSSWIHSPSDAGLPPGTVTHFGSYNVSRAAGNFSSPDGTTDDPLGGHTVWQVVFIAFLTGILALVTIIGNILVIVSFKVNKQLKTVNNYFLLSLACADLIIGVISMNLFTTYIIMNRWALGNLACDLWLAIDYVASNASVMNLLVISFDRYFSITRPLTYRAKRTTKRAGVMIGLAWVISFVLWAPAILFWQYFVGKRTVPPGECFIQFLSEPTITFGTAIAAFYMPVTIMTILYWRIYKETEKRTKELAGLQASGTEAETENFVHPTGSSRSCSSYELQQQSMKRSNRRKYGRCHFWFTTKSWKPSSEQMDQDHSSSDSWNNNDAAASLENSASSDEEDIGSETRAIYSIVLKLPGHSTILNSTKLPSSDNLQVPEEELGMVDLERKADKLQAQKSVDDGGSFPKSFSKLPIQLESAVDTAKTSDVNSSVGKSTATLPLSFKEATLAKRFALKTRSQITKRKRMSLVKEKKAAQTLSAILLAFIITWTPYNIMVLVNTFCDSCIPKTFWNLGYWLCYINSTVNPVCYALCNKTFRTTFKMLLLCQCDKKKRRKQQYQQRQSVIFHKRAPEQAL
Test: Muscarine M3 receptor binding
Conditions: human M3, CHO cells; receptor binding
Express the reported value numerically, then name its unit.

Some solved cases for reference:
CCCCCCSc1nc[nH]c1C1=CCCN(C)C1 [Compound 76B] ... 2510 nM
CCOCCSc1c[nH]nc1C1=CCCN(C)C1 [Compound 22O] ... 2510 nM

// each compound listed below needs its Ki
1. CCCCCSc1nc[nH]c1C1=CCCN(C)C1 [Compound 76A]
2. CN1CCC=C(c2n[nH]cc2SCCC=C(F)F)C1 [Compound 22J]
3. C=CCCCOc1c[nH]nc1C1=CCCN(C)C1 [Compound 33F]

Reply:
794 nM
316 nM
1000 nM

From: patent US8735388B2
